test-system: T1, rHuman IGF-1 sR, (IGF-1 sR), CF (human, UniProt P08069 31-932)
T1 construct: Bought from R&D Systems; also called insulin-like growth factor-1 soluble receptor
method-notes: ECL Multispot (MSD) assay; antigen spotted on plate, Fab in solution;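 further: fab bound 1 h at 20 °C, detected by TAG-labelled antibody electrochemiluminescence, signal relative to each well's blank, ratio of 4 or more marks a hit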
assay-readout: ECL signal
Form field (numeric): enter value without unit.

Fab VH1-46_IGHD6-6*01_IGHJ1*01 S102A/S103P/S104F/H111F (APFF) & L6_IGKJ1*01 S28Q (Fab, V domains shown, Fab made in E. coli; the variable domains were cloned into Plasmid A (CH1, His and Flag tags) and Plasmid C (kappa CL); also called APFF / S28Q) VH: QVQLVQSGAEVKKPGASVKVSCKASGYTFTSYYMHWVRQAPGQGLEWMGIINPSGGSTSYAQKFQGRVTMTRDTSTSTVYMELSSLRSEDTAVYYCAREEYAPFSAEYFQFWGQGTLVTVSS VL: EIVLTQSPATLSLSPGERATLSCRASQQVSSYLAWYQQKPGQAPRLLIYDASNRATGIPARFSGSGSGTDFTLTISSLEPEDFAVYYCQQRSNWPPWTFGQGTKVEIKR    404
Fab VH1-46_IGHD6-6*01_IGHJ1*01 S102A/S103P/S104F/H111F (APFF) & L6_IGKJ1*01 S28L (Fab, V domains shown, Fab made in E. coli; the variable domains were cloned into Plasmid A (CH1, His and Flag tags) and Plasmid C (kappa CL); also called APFF / S28L) VH: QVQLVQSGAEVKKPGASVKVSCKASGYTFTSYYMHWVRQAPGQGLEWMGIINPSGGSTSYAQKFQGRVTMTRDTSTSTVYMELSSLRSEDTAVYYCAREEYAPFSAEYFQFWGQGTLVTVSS VL: EIVLTQSPATLSLSPGERATLSCRASQLVSSYLAWYQQKPGQAPRLLIYDASNRATGIPARFSGSGSGTDFTLTISSLEPEDFAVYYCQQRSNWPPWTFGQGTKVEIKR    346

Param item = Fab VH1-46_IGHD6-6*01_IGHJ1*01 S102A/S103P/S104F/H111F (APFF) & L6_IGKJ1*01 S28F (Fab, V domains shown, Fab made in E. coli; the variable domains were cloned into Plasmid A (CH1, His and Flag tags) and Plasmid C (kappa CL); also called APFF / S28F) VH: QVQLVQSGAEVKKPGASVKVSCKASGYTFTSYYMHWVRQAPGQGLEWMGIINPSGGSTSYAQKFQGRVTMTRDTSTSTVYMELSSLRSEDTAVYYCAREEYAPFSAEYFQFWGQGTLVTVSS VL: EIVLTQSPATLSLSPGERATLSCRASQFVSSYLAWYQQKPGQAPRLLIYDASNRATGIPARFSGSGSGTDFTLTISSLEPEDFAVYYCQQRSNWPPWTFGQGTKVEIKR ; retrieve measured ECL signal.
275

Please report the recorded ECL signal for Fab VH1-46_IGHD6-6*01_IGHJ1*01 S102A/S103P/S104F/H111F (APFF) & L6_IGKJ1*01 S28T (Fab, V domains shown, Fab made in E. coli; the variable domains were cloned into Plasmid A (CH1, His and Flag tags) and Plasmid C (kappa CL); also called APFF / S28T) VH: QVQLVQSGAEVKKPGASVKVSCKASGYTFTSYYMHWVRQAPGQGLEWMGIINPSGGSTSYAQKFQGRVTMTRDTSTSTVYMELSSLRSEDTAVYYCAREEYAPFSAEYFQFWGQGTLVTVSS VL: EIVLTQSPATLSLSPGERATLSCRASQTVSSYLAWYQQKPGQAPRLLIYDASNRATGIPARFSGSGSGTDFTLTISSLEPEDFAVYYCQQRSNWPPWTFGQGTKVEIKR .
355
